ASSAY NAME: Phage titer assay of phage binding to hair
Parameters: species or system human
SETUP CONDITIONS: phage-displayed peptide; six gray hair strands; relative to HP2-TonB-Gray3 = 100
READOUT KIND: Phage Titer (%) relative to the activity of HP2-TonB-Gray3
Answers are plain numbers, in %.

Report Phage Titer (%) relative to the activity of HP2-TonB-Gray3 for every entry below.
1. Gray5-[(KP)6GG]2-HP2: hair-binding domain, SEQ ID NO: 99 (peptide) PSTAEIQSSKNPNPHPQRSWTNGPKPKPKPKPKPKPGGKPKPKPKPKPKPGGPAAQSQLPDKHSGLHERAPQRYGS
2. Gray5-(EAAAKLL)3-MEA4: hair-binding domain, SEQ ID NO: 90 (peptide) PSTAEIQSSKNPNPHPQRSWTNGPEAAAKLLEAAAKLLEAAAKLLPAHINKTNPHQGNHHSEKTQRQGS
3. Gray3-TonB-HP1: hair-binding domain, SEQ ID NO: 98 (peptide) PSHDHKNQKETHQRHAAGPEPEPEPEPIPEPPKEAPVVIEKPKPKPKPKPKPPAGSCVDTHKADSCVANNGPATGS
4. Gray5-(EAAAKLL)3-Gray3: hair-binding domain, SEQ ID NO: 92 (peptide) PSTAEIQSSKNPNPHPQRSWTNGPEAAAKLLEAAAKLLEAAAKLLPAHDHKNQKETHQRHAAGS
5. Gray5-[(KP)6GG]2-Gray4A: hair-binding domain, SEQ ID NO: 78 (peptide) PSTAEIQSSKNPNPHPQRSWTNGPKPKPKPKPKPKPGGKPKPKPKPKPKPGGPAHNHMQERYTAPQHSPSVNGLGS
6. HP2-TonB-IB5A: hair-binding domain, SEQ ID NO: 88 (peptide) PSAQSQLPDKHSGLHERAPQRYGPEPEPEPEPIPEPPKEAPVVIEKPKPKPKPKPKPPATPPELLHGAPRSGS
7. HP2-(EEAAKK)5-Gray4A: hair-binding domain, SEQ ID NO: 74 (peptide) PSAQSQLPDKHSGLHERAPQRYGPEEAAKKEEAAKKEEAAKKEEAAKKEEAAKKPAHNHMQERYTAPQHSPSVNGLGS
8. MEA4-[(KP)6GG]2-MEA4: hair-binding domain, SEQ ID NO: 102 (peptide) PSHINKTNPHQGNHHSEKTQRQGPKPKPKPKPKPKPGGKPKPKPKPKPKPGGPAHINKTNPHQGNHHSEKTQRQGS

A.
1
25
1
10
1
50
50
1
